- TEST_SYSTEM: cloned human 5-HT6 receptor (Homo sapiens)
- Construct: host or cells: HeLa cells, G-418 selection, membrane preparation
- Sequence (P50406 whole entry): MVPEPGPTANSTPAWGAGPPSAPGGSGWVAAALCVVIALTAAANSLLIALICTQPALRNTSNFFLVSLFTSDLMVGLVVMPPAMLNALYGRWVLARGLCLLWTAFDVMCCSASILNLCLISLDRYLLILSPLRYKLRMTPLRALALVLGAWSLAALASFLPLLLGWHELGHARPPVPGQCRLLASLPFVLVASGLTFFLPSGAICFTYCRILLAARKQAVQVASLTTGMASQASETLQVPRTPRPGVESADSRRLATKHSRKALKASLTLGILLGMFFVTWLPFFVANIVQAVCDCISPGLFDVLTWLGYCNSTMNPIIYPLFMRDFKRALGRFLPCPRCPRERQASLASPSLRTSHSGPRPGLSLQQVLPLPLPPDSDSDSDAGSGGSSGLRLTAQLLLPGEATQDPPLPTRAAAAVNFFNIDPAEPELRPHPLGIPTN
- TEST_METHOD_NOTES: 5-HT6 Receptor Binding Assay ([3H]-LSD radioligand, SPA)
- CONDITIONS_USED: read-out: 5HT6 % inh @ 1 uM
Answer label 0 if inhibition at 1 µM is under 90%, and label 1 if it is 90% or more.

Test whether the molecule "O=C(c1cccc(N2CCCNCC2)n1)N1CCC[C@H](Oc2cccc(F)c2)C1" records inhibition at 1 µM of 90% or higher.
label 1

Test whether the molecule "Cc1ccc([C@H]2CCCCN2C(=O)c2cccc(N3CCN(C)CC3)n2)cc1" records inhibition at 1 µM of 90% or higher.
label 0

Test whether the molecule "CN1CC(c2cccc(C(=O)N3CCC(Oc4ccc(F)cc4)CC3)n2)C1" records inhibition at 1 µM of 90% or higher.
label 0

Test whether the molecule "Cc1ccccc1C1CCN(S(=O)(=O)c2cccc(N3CCN(C)CC3)n2)CC1" records inhibition at 1 µM of 90% or higher.
label 1

Test whether the molecule "Cc1ccccc1OC1CCN(C(=O)c2cccc(C3=CCN(C)CC3)n2)CC1" records inhibition at 1 µM of 90% or higher.
label 1

Test whether the molecule "Cc1ccccc1C1CCN(C(=O)c2cccc(N3CCN(C4CC4)CC3)n2)CC1" records inhibition at 1 µM of 90% or higher.
label 0

Test whether the molecule "Cc1cccc(O[C@@H]2CCN(C(=O)c3cccc(N4CCCN(C)CC4)n3)C2)c1" records inhibition at 1 µM of 90% or higher.
label 0

Test whether the molecule "Cc1cccc([C@@H](C)N(C)C(=O)c2cccc(N3CCN(C)CC3)n2)c1" records inhibition at 1 µM of 90% or higher.
label 1

Test whether the molecule "CN1CCCN(c2cccc(C(=O)N3CCC[C@H](Oc4cccc(Cl)c4)C3)n2)CC1" records inhibition at 1 µM of 90% or higher.
label 1

Test whether the molecule "Cc1ccc(O[C@@H]2CCCN(C(=O)c3cccc(N4CCCNCC4)n3)C2)cc1" records inhibition at 1 µM of 90% or higher.
label 0

Test whether the molecule CN1CCC(c2cccc(C(=O)N3CCC(Oc4cccc(F)c4)CC3)n2)C1 (stereo not drawn) records inhibition at 1 µM of 90% or higher.
label 1

Test whether the molecule "Cc1cccc(O[C@H]2CCN(C(=O)c3cccc(N4CCCN(C)CC4)n3)C2)c1" records inhibition at 1 µM of 90% or higher.
label 1

Test whether the molecule "CN1CCCN(c2cccc(C(=O)N3CC[C@@H](Oc4ccccc4F)C3)n2)CC1" records inhibition at 1 µM of 90% or higher.
label 0

Test whether the molecule "O=C(c1cccc(N2CCCNCC2)n1)N1CC[C@H](Oc2ccc(F)cc2)C1" records inhibition at 1 µM of 90% or higher.
label 0

Test whether the molecule "Cc1cccc(O[C@H]2CCN(C(=O)c3cccc(N4CCCNCC4)n3)C2)c1" records inhibition at 1 µM of 90% or higher.
label 1
